# Tested on: A549
# METHOD NOTES: MTT assay, antiproliferative activity against A549 cells
# Format: cell-based
# PROTOCOL CONDITIONS: Homo sapiens, 72 h, mean of at least two determinations
REPORTED ENDPOINT: IC50 (µM)

Completed entries (count: 6):
MOLECULE: COc1ccc(S(=O)(=O)c2nc3ccccc3nc2N2CCN(C(C)=O)CC2)cc1
IC50 [µM]: 18.6

MOLECULE: NC(=O)C1CCN(c2nc3ccccc3nc2S(=O)(=O)c2ccc(Br)cc2)CC1
IC50 [µM]: 12.1

MOLECULE: CC(=O)N1CCN(c2nc3ccccc3nc2S(=O)(=O)c2ccc(F)cc2)CC1
IC50 [µM]: 7.12

MOLECULE: O=S(=O)(c1ccc(Br)cc1)c1nc2ccccc2nc1N1CCN(CCCN2CCOCC2)CC1
IC50 [µM]: 0.34

MOLECULE: CN1CCN(c2nc3ccccc3nc2S(=O)(=O)c2ccc(F)cc2)CC1
IC50 [µM]: 7.95

MOLECULE: O=C(c1ccccc1)N1CCN(c2nc3ccccc3nc2S(=O)(=O)c2ccc(F)cc2)CC1
IC50 [µM]: 1.16

(A) O=S(=O)(c1ccccc1)c1nc2ccccc2nc1N1CCN(CCCN2CCOCC2)CC1
(B) CC(=O)N1CCN(c2nc3ccccc3nc2S(=O)(=O)c2ccc(Br)cc2)CC1
Between A and B , which one shows the smaller IC50 number? Please indicate the selected item by its label.
A

(I) O=C(c1ccccc1)N1CCN(c2nc3ccccc3nc2S(=O)(=O)c2ccccc2)CC1
(II) NC(=O)C1CCN(c2nc3ccccc3nc2S(=O)(=O)c2ccc(F)cc2)CC1
Between I and II , which one shows the smaller IC50 number? Please indicate the selected item by its label.
I
(I: 5.2 µM, II: 10.2 µM)

(P) Cc1ccc(S(=O)(=O)c2nc3ccccc3nc2N2CCNCC2)cc1
(Q) CC1CN(c2nc3ccccc3nc2S(=O)(=O)c2ccccc2)CCN1 (stereo not shown)
(R) O=S(=O)(c1ccc(Br)cc1)c1nc2ccccc2nc1N1CCNCC1
(S) COc1ccc(S(=O)(=O)c2nc3ccccc3nc2N2CCN(CCCN3CCOCC3)CC2)cc1
Thanks in advance: please rank these 4 entries by IC50, highest to lowest. Answer by listing the labels in the order asked for.
P, S, Q, R
(P: 14.4 µM, S: 2.1 µM, Q: 1.36 µM, R: 0.75 µM)

(P) COc1ccc(S(=O)(=O)c2nc3ccccc3nc2N2CCC(C(N)=O)CC2)cc1
(Q) O=S(=O)(c1ccc(F)cc1)c1nc2ccccc2nc1N1CCN(CCCN2CCOCC2)CC1
(R) CN1CCN(c2nc3ccccc3nc2S(=O)(=O)c2ccc(Br)cc2)CC1
Exam item: list the entries in increasing order of IC50. Answer by listing the labels in the order asked for.
Q, R, P

---

# System: PC3
# METHOD NOTES: MTT assay, antiproliferative activity against PC3 cells
# Type: cell-based
# PROTOCOL CONDITIONS: Homo sapiens, PC-3, 72 h, mean of at least two determinations
REPORTED ENDPOINT: IC50 (nM)

Completed entries (count: 5):
MOLECULE SMILES: O=S(=O)(c1ccccc1)c1nc2ccccc2nc1N1CCN(CCCN2CCOCC2)CC1
IC50 / nM: 5120
--
MOLECULE SMILES: COc1ccc(S(=O)(=O)c2nc3ccccc3nc2N2CCN(S(=O)(=O)c3ccc(C)cc3)CC2)cc1
IC50 / nM: 6200
--
MOLECULE SMILES: CC(=O)N1CCN(c2nc3ccccc3nc2S(=O)(=O)c2ccc(C)cc2)CC1
IC50 / nM: 2270
--
MOLECULE SMILES: COc1ccc(S(=O)(=O)c2nc3ccccc3nc2N2CCN(S(C)(=O)=O)CC2)cc1
IC50 / nM: 2210
--
MOLECULE SMILES: Cc1ccc(S(=O)(=O)c2nc3ccccc3nc2N2CCN(C)CC2)cc1
IC50 / nM: 840

(P) COc1ccc(S(=O)(=O)c2nc3ccccc3nc2N2CCNCC2)cc1
(Q) O=C(c1ccccc1)N1CCN(c2nc3ccccc3nc2S(=O)(=O)c2ccc(F)cc2)CC1
IC50 comparison. Which is larger, P or Q ? Please indicate the selected item by its label.
Q
(Q: 1770 nM, P: 680 nM)

---

REPORTED ENDPOINT: melting point

Completed entries (count: 5):
MOLECULE: CC(=O)N1CCN(c2nc3ccccc3nc2S(=O)(=O)c2ccc(Br)cc2)CC1
OBSERVED: 174 to 178 °C
--
MOLECULE: CC1CN(c2nc3ccccc3nc2S(=O)(=O)c2ccc(F)cc2)CCN1 (stereo not shown)
OBSERVED: 119 to 123 °C
--
MOLECULE: CC(=O)N1CCN(c2nc3ccccc3nc2S(=O)(=O)c2ccc(C)cc2)CC1
OBSERVED: 148 to 150 °C
--
MOLECULE: O=C(c1ccc(Cl)cc1)N1CCN(c2nc3ccccc3nc2S(=O)(=O)c2ccc(F)cc2)CC1
OBSERVED: 214 to 215 °C
--
MOLECULE: COc1ccc(S(=O)(=O)c2nc3ccccc3nc2N2CCN(C)CC2)cc1
OBSERVED: 121 to 124 °C

According to the records, this molecule `O=S(=O)(c1ccc(Br)cc1)c1nc2ccccc2nc1N1CCNCC1` displays melting point of 92 to 96 °C

According to the records, this molecule `CN1CCN(c2nc3ccccc3nc2S(=O)(=O)c2ccc(Br)cc2)CC1` displays melting point of 141 to 142 °C

---

# ASSAYED SYSTEM: recombinant human PI3Kα (Homo sapiens)
# Construct: purchased Echelon Biosciences (Salt Lake City, UT, USA) E-2000
# Sequence (P42336 whole entry): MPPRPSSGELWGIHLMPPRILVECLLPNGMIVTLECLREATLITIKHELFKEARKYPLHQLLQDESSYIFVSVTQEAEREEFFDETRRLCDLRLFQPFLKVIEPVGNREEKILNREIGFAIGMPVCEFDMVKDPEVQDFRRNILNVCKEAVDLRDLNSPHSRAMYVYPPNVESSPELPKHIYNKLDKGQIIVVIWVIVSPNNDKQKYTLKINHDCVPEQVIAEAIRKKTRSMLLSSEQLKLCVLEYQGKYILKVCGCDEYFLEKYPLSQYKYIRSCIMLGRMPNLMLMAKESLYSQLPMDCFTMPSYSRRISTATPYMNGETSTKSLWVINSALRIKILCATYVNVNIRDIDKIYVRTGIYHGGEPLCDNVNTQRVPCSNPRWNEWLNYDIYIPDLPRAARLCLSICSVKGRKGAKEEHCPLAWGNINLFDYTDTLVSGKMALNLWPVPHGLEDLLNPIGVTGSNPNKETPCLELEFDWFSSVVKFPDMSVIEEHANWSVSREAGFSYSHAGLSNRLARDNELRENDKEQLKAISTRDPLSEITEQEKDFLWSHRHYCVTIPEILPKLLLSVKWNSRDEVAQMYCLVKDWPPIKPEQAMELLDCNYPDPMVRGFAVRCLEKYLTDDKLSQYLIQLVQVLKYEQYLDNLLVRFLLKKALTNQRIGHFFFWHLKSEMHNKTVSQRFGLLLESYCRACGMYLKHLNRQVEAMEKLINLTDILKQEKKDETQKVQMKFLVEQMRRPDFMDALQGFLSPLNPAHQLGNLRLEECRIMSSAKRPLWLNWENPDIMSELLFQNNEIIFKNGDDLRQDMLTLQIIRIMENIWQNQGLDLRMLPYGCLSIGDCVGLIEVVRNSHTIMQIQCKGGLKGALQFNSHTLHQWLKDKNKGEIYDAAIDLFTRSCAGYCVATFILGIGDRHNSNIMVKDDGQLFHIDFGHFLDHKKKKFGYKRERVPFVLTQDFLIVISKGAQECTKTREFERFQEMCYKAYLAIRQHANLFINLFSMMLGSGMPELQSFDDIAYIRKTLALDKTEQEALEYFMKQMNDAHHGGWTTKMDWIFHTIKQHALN
# Sequence (P27986 whole entry partner): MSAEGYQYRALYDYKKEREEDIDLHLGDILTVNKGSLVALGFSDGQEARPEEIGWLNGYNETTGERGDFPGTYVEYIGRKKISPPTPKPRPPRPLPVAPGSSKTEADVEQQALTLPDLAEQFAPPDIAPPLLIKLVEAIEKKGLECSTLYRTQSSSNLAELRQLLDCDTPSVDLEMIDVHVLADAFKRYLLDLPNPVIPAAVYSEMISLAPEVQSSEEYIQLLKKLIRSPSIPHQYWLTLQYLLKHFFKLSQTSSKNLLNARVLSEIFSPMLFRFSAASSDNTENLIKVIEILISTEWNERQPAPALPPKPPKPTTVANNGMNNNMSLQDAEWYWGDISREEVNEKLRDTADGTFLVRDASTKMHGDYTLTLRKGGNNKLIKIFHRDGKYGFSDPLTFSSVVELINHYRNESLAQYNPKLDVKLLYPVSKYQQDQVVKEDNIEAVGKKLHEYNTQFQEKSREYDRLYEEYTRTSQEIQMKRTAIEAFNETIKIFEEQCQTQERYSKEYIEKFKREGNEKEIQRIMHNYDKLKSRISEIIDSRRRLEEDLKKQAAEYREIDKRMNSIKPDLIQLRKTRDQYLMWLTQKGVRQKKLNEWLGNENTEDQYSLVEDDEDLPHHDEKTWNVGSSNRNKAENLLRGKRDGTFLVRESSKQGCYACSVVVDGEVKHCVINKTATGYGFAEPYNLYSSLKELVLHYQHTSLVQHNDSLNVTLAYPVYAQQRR
# METHOD NOTES: Competitive fluorescence polarization (FP) assay, inhibition of PI3Kα
# Type: biochemical
# PROTOCOL CONDITIONS: FP assay, 50 µM ATP, mean of at least two determinations
pIC50: −log10 of the molar value.
REPORTED ENDPOINT: pIC50

COMPOUND: CS(=O)(=O)N1CCN(c2nc3ccccc3nc2S(=O)(=O)c2ccc(Br)cc2)CC1
pIC50: 6.36

COMPOUND: COc1ccc(S(=O)(=O)c2nc3ccccc3nc2N2CCNC(C)C2)cc1 (stereo not shown)
pIC50: 6.62

COMPOUND: O=S(=O)(c1ccccc1)c1nc2ccccc2nc1N1CCN(CCCN2CCOCC2)CC1
pIC50: 6.74

(a) O=C(c1ccc(Cl)cc1)N1CCN(c2nc3ccccc3nc2S(=O)(=O)c2ccccc2)CC1
(b) O=S(=O)(c1ccc(Br)cc1)c1nc2ccccc2nc1N1CCN(CCCN2CCOCC2)CC1
pIC50 comparison. Which is larger, a or b ? Please indicate the selected item by its label.
b
(b: 6.70, a: 5.56)

(1) CC1CN(c2nc3ccccc3nc2S(=O)(=O)c2ccc(Br)cc2)CCN1 (stereo not shown)
(2) O=S(=O)(c1ccccc1)c1nc2ccccc2nc1N1CCNCC1
Between 1 and 2 , which one shows the smaller pIC50 number? Please indicate the selected item by its label.
2
(2: 6.72, 1: 7.21)

(I) CC1CN(c2nc3ccccc3nc2S(=O)(=O)c2ccccc2)CCN1 (stereo not shown)
(II) CS(=O)(=O)N1CCN(c2nc3ccccc3nc2S(=O)(=O)c2ccccc2)CC1
Between I and II , which one shows the smaller pIC50 number? Please indicate the selected item by its label.
II
(II: 5.87, I: 7.23)

---

# System: HL60
# METHOD NOTES: MTT assay, antiproliferative activity against HL60 cells
# Format: cell-based
# PROTOCOL CONDITIONS: Homo sapiens, HL-60, 72 h, mean of at least two determinations
# Description: All synthesized target compounds were firstly tested for their antiproliferative activity against five human cancer cell lines, PC3, A549, HCT116, HL60, and KB, using MTT assay. Human prostate cancer PC3 cells, lung adenocarcinoma epithelial A549 cells, colon cancer HCT116 cells, promyelocytic leukemia HL60 cells and nasopharyngeal carcinoma KB cells were obtained from the cell bank of the Institute of Biochemistry and Cell Biology, Chinese Academy of Sciences (Shanghai, China). […]
pIC50: −log10 of the molar value.
REPORTED ENDPOINT: pIC50

Completed entries (count: 4):
COMPOUND: COc1ccc(S(=O)(=O)c2nc3ccccc3nc2N2CCN(C(=O)c3ccc(Cl)cc3)CC2)cc1 [Compound 36]
ASSAYED SYSTEM: HL60
pIC50: 5.25

COMPOUND: CC(=O)N1CCN(c2nc3ccccc3nc2S(=O)(=O)c2ccc(C)cc2)CC1 [Compound 10]
ASSAYED SYSTEM: HL60
pIC50: 5.48

COMPOUND: Cc1ccc(S(=O)(=O)c2nc3ccccc3nc2N2CCN(C(=O)c3ccc(Cl)cc3)CC2)cc1 [Compound 35]
ASSAYED SYSTEM: HL60
pIC50: 5.22

COMPOUND: COc1ccc(S(=O)(=O)c2nc3ccccc3nc2N2CCN(C(=O)c3ccccc3)CC2)cc1 [Compound 31]
ASSAYED SYSTEM: HL60
pIC50: 5.16

(1) NC(=O)C1CCN(c2nc3ccccc3nc2S(=O)(=O)c2ccc(F)cc2)CC1 [Compound 8]
(2) CN1CCN(c2nc3ccccc3nc2S(=O)(=O)c2ccc(Br)cc2)CC1 [Compound 17]
pIC50 comparison. Which is larger, 1 or 2 ? Please indicate the selected item by its label.
2
(2: 6.55, 1: 5.38)

Numbers sourced from paper PMC3419191.
